System: HT29
Experiment: Cytotoxicity assay, SRB colorimetric assay
Assay type: cell-based
Conditions: read-out: LC50; HT29 colorectal adenocarcinoma, 72 hours treatment, 50% net cell killing (cytotoxic effect)
MEASUREMENT_NAME: LC50 (50% net cell killing) (µM)
Field: numeric (µM). Do not append units.

Any idea what LC50 (50% net cell killing) was measured for CC1(C)C(=O)C=C[C@]2(C)[C@H]3CC[C@]4(C)[C@@H](c5ccc(=O)oc5)[C@@H](Cl)C[C@]4(O)C3=CC[C@@H]12 ?
4.86

====

System: MDA-MB-231
Test: Cytotoxicity assay, SRB colorimetric assay
Format: cell-based
Conditions: Homo sapiens, MDA-MB-231, 72 h, read-out: LC50, MDA-MB-231 breast adenocarcinoma, 72 hours treatment, 50% net cell killing (cytotoxic effect)
# CC50 annotations
Field: numeric (nM). Do not append units.

For orientation, consider the following solved cases.
- COMPOUND: "CO[C@H]1[C@H]2O[C@H]2[C@]2(CO)[C@H]3CC[C@]4(C)[C@@H](c5ccc(=O)oc5)C(Cl)(Cl)C[C@]4(O)C3=CC[C@H]2C1(C)C"
  READING_UNIT: "nM"
  CC50: 381
- COMPOUND: "CO[C@H]1C=C[C@]2(C)[C@H]3C[C@@H](O)[C@]4(C)[C@@H](c5ccc(=O)oc5)C(Cl)(Cl)C[C@]4(O)C3=CC[C@H]2C1(C)C"
  READING_UNIT: "nM"
  CC50: 173
- COMPOUND: "CO[C@H]1C=C[C@]2(C)[C@H]3CC[C@]4(C)[C@@H](c5ccc(=O)oc5)[C@@H](Cl)C[C@]4(O)C3=CC[C@H]2C1(C)C"
  READING_UNIT: "nM"
  CC50: 1290
- COMPOUND: "CC1(C)C(=O)C=C[C@]2(C)[C@H]3CC[C@]4(C)[C@@H](c5ccc(=O)oc5)[C@@H](Cl)C[C@]4(O)C3=CC[C@@H]12"
  READING_UNIT: "nM"
  CC50: 948
- COMPOUND: "CO[C@H]1C=C[C@]2(C)[C@H]3CC[C@]4(C)[C@@H](c5ccc(=O)oc5)C(Cl)(Cl)C[C@]4(O)C3=CC[C@H]2C1(C)C"
  READING_UNIT: "nM"
  CC50: 750
- COMPOUND: "CC1(C)C(=O)C=C[C@]2(C)[C@H]3CC[C@]4(C)[C@@H](c5ccc(=O)oc5)C(Cl)(Cl)C[C@]4(O)C3=CC[C@@H]12"
  READING_UNIT: "nM"
  CC50: 691

Please turn your attention to the following entry.
Any idea what CC50 was measured for CO[C@H]1[C@H]2O[C@H]2[C@]2(C=O)[C@H]3CC[C@]4(C)[C@@H](c5ccc(=O)oc5)C(Cl)(Cl)C[C@]4(O)C3=CC[C@H]2C1(C)C ?
61.1

====

System: MDA-MB-231
Test: Cytotoxicity assay, SRB colorimetric assay
Assay type: cell-based
Settings: read-out: LC50; MDA-MB-231 breast adenocarcinoma, 72 hours treatment, 50% net cell killing (cytotoxic effect)
MEASUREMENT_NAME: CC50 (nM)
Field: numeric (nM). Do not append units.

Any idea what CC50 was measured for CC1(C)C(=O)C=C[C@]2(C)[C@H]3CC[C@]4(C)[C@@H](c5ccc(=O)oc5)[C@@H](Cl)C[C@]4(O)C3=CC[C@@H]12 ?
608
